Quick list: abundance fitness per entry.
B1: Ankyrin repeat and SOCS box protein 14, residues 532 to 572; numbered along this chain, A6NK59 (parent)
chain: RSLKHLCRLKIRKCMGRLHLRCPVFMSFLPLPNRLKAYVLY

variants of: B1; experiment: abundance fitness (aPCA) (normalised: wild type 0, dead -1); higher = more abundant; growth selection in yeast, the domain comes from the species named; conditions: Homo sapiens
Reply with the value as a number alone.

Example entries begin here.
{"columns": ["Variant Designation", "Observed"],
 "data": [
  ["F25I", 0.316],
  ["R21A", -0.076],
  ["C7T", -0.217],
  ["N33E", 0.173],
  ["H5V", -0.94]
]}

Prompt: Any idea what its abundance fitness is? The variant is C14S
Completion: -0.155

Prompt: Do the same for P32S please
Completion: -0.363

Prompt: Moving on to the next variant: I11E
Completion: -0.953

Prompt: Ok, now C22I
Completion: 0.178

Prompt: Another variant to look at: K10D
Completion: -0.319

Ref: the Human Domainome abundance scans (Beltran et al. 2025)
